All figures here come from patent US9242996B2.

target or system: activated ERK2 (Homo sapiens (Human), UniProt P28482)
Sequence (P28482 whole entry): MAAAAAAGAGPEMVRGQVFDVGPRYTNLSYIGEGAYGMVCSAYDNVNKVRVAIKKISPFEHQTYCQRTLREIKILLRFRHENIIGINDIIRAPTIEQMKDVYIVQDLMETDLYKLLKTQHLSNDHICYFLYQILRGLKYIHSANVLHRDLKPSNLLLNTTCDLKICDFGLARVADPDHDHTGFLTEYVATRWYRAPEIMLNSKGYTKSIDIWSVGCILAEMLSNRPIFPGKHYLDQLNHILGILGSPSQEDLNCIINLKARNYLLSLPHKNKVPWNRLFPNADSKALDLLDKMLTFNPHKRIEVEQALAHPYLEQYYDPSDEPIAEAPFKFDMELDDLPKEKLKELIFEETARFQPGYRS
procedure details: Activated ERK2 kinase assay, ERK2 New conditions (AlphaScreen, ERKtide phosphorylation)
Format: biochemical
stated conditions: 0.25 nM ERK2, 200 nM ERKtide peptide, 35 μM ATP, 30 min preincubation
pIC50: −log10 of the molar value.
measurement label: pIC50

Example entries begin here.
N#CCCc1cnc(N)c(-c2ccc(C(=O)N[C@H](CO)c3ccccc3)c(F)c2)n1 [Example 114] : 6.91
C[C@@H](NC(=O)c1ccc(-c2nc(C3=CCCCC3)cnc2N)cc1F)c1cc(F)cc(S(C)(=O)=O)c1 [Example 426] : 8.87

1 = Cc1ncc(-c2cnc(N)c(-c3ccc(C(=O)N[C@H](CO)c4cccc(F)c4)c(F)c3)c2)n1C [Example 163]
2 = Nc1ncc(C2CCSCC2)cc1-c1ccc(C(=O)N[C@H](CO)c2cccc(Cl)c2)c(F)c1 [Example 212]
3 = Nc1ncc(C2CCOCC2)cc1-c1ccc(C(=O)N[C@@H]2CCCN(Cc3ccccc3F)C2)c(F)c1 [Example 113]
With regard to pIC50, arrange the entries in ascending order, please. Record the ranking as a list of labels in the requested order.
3, 1, 2

1 = Nc1ncc(C2CCOCC2)nc1-c1ccc(C(=O)NC[C@@H](O)c2ccccc2)c(F)c1 [Example 333]
2 = COCC(=O)N[C@H]1CC[C@H](c2cnc(N)c(-c3ccc(C(=O)N[C@H](CO)c4cccc(Cl)c4)c(F)c3)n2)CC1 [Example 430]
3 = C[C@@H](NC(=O)c1ccc(-c2nc([C@H]3CC[C@@H](O)CC3)cnc2N)cc1F)c1cccc(Cl)c1 [Example 416]
Reorder: pIC50, max to min. Answer format: list of labels, ordered as asked.
2, 3, 1
(2: 9.10, 3: 8.25, 1: 7.46)

###

target or system: activated ERK2 (Homo sapiens (Human))
procedure details: Activated ERK2 kinase assay, ERK2 New conditions (AlphaScreen, ERKtide phosphorylation)
Type: biochemical
stated conditions: 0.25 nM ERK2, 200 nM ERKtide peptide, 35 μM ATP, 30 min preincubation
measurement label: IC50 (nM)

Use these answered entries as a reference point.
CC(C)n1cc(-c2cnc(N)c(-c3ccc(C(=O)N[C@H](CO)c4cccc(S(C)(=O)=O)c4)c(F)c3)c2)cn1 : 1.48
CN(Cc1ncccn1)C(=O)c1ccc(-c2cc(C3CCOCC3)cnc2N)cc1F : 12300

I = CCOCCc1cnc(N)c(-c2ccc(C(=O)N[C@H](CO)c3ccccc3)c(F)c2)n1
II = CS(=O)(=O)c1cc(F)cc(CNC(=O)c2ccc(-c3nc(C4CCOCC4)cnc3N)cc2F)c1
Looking at recorded values for IC50, does I or II come in lower? Give the label under which the chosen entry appears.
II
(II: 0.242 nM, I: 177 nM)

###

target or system: ERK2 (Homo sapiens (Human), UniProt P28482)
Sequence (P28482 whole entry, species assumed): as the sequence (P28482 whole entry) above
measurement label: IC50 (nM)

Nc1ncc(C2CCOCC2)cc1-c1ccc(C(=O)NCc2ccccc2)cc1 [Example 66] : 55.3
C[C@@H](NC(=O)c1ccc(-c2cc(C3CCOCC3)cnc2N)cc1)c1ccccc1 [Example 69] : 16
CC(=O)Nc1cccc(CNC(=O)c2ccc(-c3cc(C4CCOCC4)cnc3N)cc2)c1 [Example 92] : 267
Nc1ncc(C2CCOCC2)cc1-c1ccc(C(=O)NCc2cccnc2)cc1 [Example 93] : 887
Nc1ncc(C2CCOCC2)cc1-c1ccc(C(=O)NCc2ccc(Cl)cc2)cc1 [Example 88] : 81.4

I = Nc1ncc(C2CCS(=O)(=O)CC2)cc1-c1ccc(C(=O)N[C@H](CO)c2ccccc2)cc1 [Example 77]
II = Nc1ncc(N2CCOCC2)cc1-c1ccc(C(=O)N[C@H](CO)c2ccccc2)cc1 [Example 122]
Returns: the label, I or II , whose recorded IC50 is the lower number. // return label of chosen record
II

a = Nc1ncc(C2CCOCC2)nc1-c1ccc(C(=O)NCc2cccc(Cl)c2)c(F)c1 [Example 173]
b = C[C@@H]1CN(c2cnc(N)c(-c3ccc(C(=O)N[C@H](CO)c4ccccc4)cc3)c2)C[C@H](C)O1 [Example 97]
Select one. Lower IC50: a or b Kindly state the label of the option you pick.
a

###

target or system: activated ERK2 (Homo sapiens (Human))
procedure details: Activated ERK2 kinase assay, ERK2 New conditions (AlphaScreen, ERKtide phosphorylation)
Format: biochemical
stated conditions: 0.25 nM ERK2, 200 nM ERKtide peptide, 35 μM ATP, 30 min preincubation
measurement label: IC50 (nM)

# example entries with known answers
Nc1ncc([C@H]2CCOC2)nc1-c1ccc(C(=O)N[C@H](CO)c2ccccc2)cc1 : 31
CN(C(=O)c1ccc(-c2nc(C3CCOCC3)cnc2N)cc1F)[C@H](CO)c1ccccc1 : 12.3
Nc1nccnc1-c1ccc(C(=O)NCc2ccccc2)cc1 : 4790

1 = CCn1cc(-c2cnc(N)c(-c3ccc(C(=O)N[C@H](C)c4cccc(S(C)(=O)=O)c4)c(F)c3)c2)cn1
2 = CN(Cc1ccccc1)C(=O)c1ccc(-c2nc(C3CCOCC3)cnc2N)cc1F
When 1 and 2 are compared, which has the higher number for IC50? Could you answer with the label of the item you picked?
2

A = CN1C[C@@H](c2cnc(N)c(-c3ccc(C(=O)N[C@H](CO)c4cccc(Cl)c4)c(F)c3)c2)CCC1=O
B = NC(=O)c1ccc(-c2nc(C3CCOCC3)cnc2N)cc1F
Which one would you say has the larger IC50 value: A , or B ? Write down the label of the entry you select.
B

###

target or system: activated ERK2 (Homo sapiens (Human), UniProt P28482)
procedure details: Activated ERK2 (20 pM) Kinase Assay (AlphaScreen, ERKtide phosphorylation)
Type: biochemical
stated conditions: 0.02 nM ERK2, 400 nM ERKtide peptide, 35 μM ATP, 30 min preincubation
measurement label: IC50 (nM)

Solved entries (count: 3):
Nc1ncc(C2CCOCC2)cc1-c1ccc(C(=O)NCc2cccc(Cl)c2)cc1 : 3.75
CN(C)c1cccc(CNC(=O)c2ccc(-c3cc(C4CCOCC4)cnc3N)cc2)c1 : 67.7
Cc1cnccc1-c1cnc(N)c(-c2ccc(C(=O)N[C@H](CO)c3ccccc3)cc2)c1 : 0.9

I = Nc1ncc(C2CCOCC2)nc1-c1ccc(C(=O)N[C@H](CO)c2cccc(CF)c2)c(F)c1
II = Nc1ncc(C2CCOCC2)nc1-c1ccc(C(=O)N[C@H](CO)c2cccc(Br)c2)c(F)c1
III = Nc1ncc(C2CCOCC2)cc1-c1ccc(C(=O)NCc2cccnc2)cc1
IV = Nc1ncc(C2CCOCC2)cc1-c1ccc(C(=O)NCC2CC2)cc1
Give the ascending ranking of the items by reported IC50. Field: ranking. Enter the labels in the order requested.
I, II, IV, III

###

target or system: activated ERK2 (Homo sapiens (Human))
procedure details: Activated ERK2 kinase assay, ERK2 New conditions (AlphaScreen, ERKtide phosphorylation)
Format: biochemical
stated conditions: 0.25 nM ERK2, 200 nM ERKtide peptide, 35 μM ATP, 30 min preincubation
pIC50: −log10 of the molar value.
measurement label: pIC50

A selection of reference data follows.
Cn1nccc1-c1cnc(N)c(-c2ccc(C(=O)N[C@H](CO)c3cc(F)cc(Cl)c3)c(F)c2)c1 [Example 232] : 9.59
CCn1cc(-c2cnc(N)c(-c3ccc(C(=O)N[C@H](CO)c4cccc(S(C)(=O)=O)c4)c(F)c3)c2)cn1 [Example 296] : 8.97
Cc1nn(C)cc1-c1cnc(N)c(-c2ccc(C(=O)N[C@H](CN)c3ccccc3)c(F)c2)c1 [Example 153] : 9.42
C[C@@H](NC(=O)c1ccc(-c2nc(C3=CCOCC3)cnc2N)cc1F)c1cc(F)cc(S(C)(=O)=O)c1 [Example 429] : 9.30
Nc1ncc(C2COC2)nc1-c1ccc(C(=O)N[C@H](CO)c2ccccc2)c(F)c1 [Example 224] : 7.73

a = C[C@@H](NC(=O)c1ccc(-c2cc([C@@H]3CCN(C)C(=O)C3)cnc2N)cc1F)c1ccccc1 [Example 30]
b = CN1C[C@H](c2cnc(N)c(-c3ccc(C(=O)N[C@H](CO)c4cccc(Cl)c4)c(F)c3)c2)CCC1=O [Example 37]
Compare reported pIC50 values for a and b . Which is lower? Give the label under which the chosen entry appears.
a

###

target or system: activated ERK2 (Homo sapiens (Human))
procedure details: Activated ERK2 (20 pM) Kinase Assay (AlphaScreen, ERKtide phosphorylation)
Format: biochemical
stated conditions: 0.02 nM ERK2, 400 nM ERKtide peptide, 35 μM ATP, 30 min preincubation
measurement label: IC50 (nM)

In the examples that follow, each entry is paired with its recorded IC50.
CO[C@H]1CC[C@H](c2cnc(N)c(-c3ccc(C(=O)N[C@H](CN)c4cccc(Br)c4)c(F)c3)n2)CC1 : 0.0689
Nc1ncc([C@H]2CC[C@H](O)CC2)nc1-c1ccc(C(=O)N[C@H]2C[C@@H]2c2ccccc2)c(F)c1 : 0.152
C[C@@H](NC(=O)c1ccc(-c2cc([C@H]3CC[C@H](O)CC3)cnc2N)cc1F)c1cc(F)cc(S(C)(=O)=O)c1 : 0.345
Nc1ncc([C@H]2CC[C@H](O)CC2)nc1-c1ccc(C(=O)N[C@H](CO)c2cc(F)cc(CF)c2)c(F)c1 : 0.0229
N#CC1CCC(c2cnc(N)c(-c3ccc(C(=O)N[C@H](CO)c4cc(F)cc(Br)c4)c(F)c3)n2)CC1 (some centres unmarked) [Example 450] : 1.5
NC[C@@H](NC(=O)c1ccc(-c2nc([C@H]3CC[C@H](O)CC3)cnc2N)cc1F)c1cc(F)cc(I)c1 : 0.00837
Nc1ncc([C@@H]2CC[C@H](O)[C@H](O)C2)nc1-c1ccc(C(=O)N[C@H](CO)c2cc(F)cc(Br)c2)c(F)c1 : 0.251
Nc1ncc(C2CCOCC2)cc1-c1ccc(C(=O)NCc2cccc(C(F)(F)F)c2)cc1 : 20.2

A = NC[C@@H](NC(=O)c1ccc(-c2nc(C3CCOCC3)cnc2N)cc1F)c1cc(F)cc(Cl)c1
B = Cc1cccc([C@@H](CO)NC(=O)c2ccc(-c3cc(-c4cn(C)nc4C)cnc3N)cc2F)c1
Lower value of IC50 belongs to which: A or B ? Refer to your chosen entry by its label in the reply.
A

A = Cc1c(-c2cnc(N)c(-c3ccc(C(=O)N[C@H](CO)c4cc(F)cc(CF)c4)c(F)c3)c2)cnn1C
B = NC[C@@H](NC(=O)c1ccc(-c2nc(C3CCCC(O)C3)cnc2N)cc1F)c1cccc(Cl)c1 (single isomer, unassigned) [Example 367]
Looking only at measured IC50, which entry is lower, A or B ? Respond with the label that goes with your answer.
A
(A: 0.00875 nM, B: 0.15 nM)

I = Nc1ncc(C(=O)N2CCOCC2)cc1-c1ccc(C(=O)N[C@H](CO)c2cc(F)cc(Br)c2)c(F)c1
II = Cc1c(-c2cnc(N)c(-c3ccc(C(=O)N[C@H](CO)c4cc(F)cc(CF)c4)c(F)c3)c2)cnn1C(F)F
Given I and given II , which shows the smaller recorded IC50? # reply format: chosen label
II
